Attribution: ChEMBL document CHEMBL1127592

- system_under_test: Type-1 angiotensin II receptor B (Rattus norvegicus, UniProt P29089)
- Sequence (P29089 whole entry): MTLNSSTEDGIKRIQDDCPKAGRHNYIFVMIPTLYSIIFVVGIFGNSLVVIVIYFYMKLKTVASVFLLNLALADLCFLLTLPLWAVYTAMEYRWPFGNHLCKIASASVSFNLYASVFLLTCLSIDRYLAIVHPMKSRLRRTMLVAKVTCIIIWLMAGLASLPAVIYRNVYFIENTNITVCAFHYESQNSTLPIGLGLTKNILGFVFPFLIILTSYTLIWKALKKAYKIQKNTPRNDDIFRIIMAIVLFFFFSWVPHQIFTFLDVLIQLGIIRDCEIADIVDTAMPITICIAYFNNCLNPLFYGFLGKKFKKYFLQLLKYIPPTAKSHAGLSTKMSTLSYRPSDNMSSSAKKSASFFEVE
pKi: −log10 of the molar value.
Label scheme for pKi: lower than 7 is Criterion not met, 7 and above is Criterion met.

[[record]]
mol_smiles = "CCCCc1nc(C)n2nc(O)nc2c1Cc1ccc(-c2ccccc2-c2nn[nH]n2)cc1"
qualitative_label = "Criterion met"

[[record]]
mol_smiles = "CCCc1nc(C)n2nc(S(=O)(=O)N(C)C)nc2c1Cc1ccc(-c2ccccc2-c2nn[nH]n2)cc1"
qualitative_label = "Criterion not met"

[[record]]
mol_smiles = "CCCc1nc(CO)n2nc(O)nc2c1Cc1ccc(-c2ccccc2-c2nn[nH]n2)cc1"
qualitative_label = "Criterion met"

[[record]]
mol_smiles = "CCCc1nc(C)n2nc(OC)nc2c1Cc1ccc(-c2ccccc2-c2nn[nH]n2)cc1"
qualitative_label = "Criterion met"

